# tested-system: SPNS2 (Homo sapiens, UniProt Q8IVW8)
# Sequence (Q8IVW8 whole entry): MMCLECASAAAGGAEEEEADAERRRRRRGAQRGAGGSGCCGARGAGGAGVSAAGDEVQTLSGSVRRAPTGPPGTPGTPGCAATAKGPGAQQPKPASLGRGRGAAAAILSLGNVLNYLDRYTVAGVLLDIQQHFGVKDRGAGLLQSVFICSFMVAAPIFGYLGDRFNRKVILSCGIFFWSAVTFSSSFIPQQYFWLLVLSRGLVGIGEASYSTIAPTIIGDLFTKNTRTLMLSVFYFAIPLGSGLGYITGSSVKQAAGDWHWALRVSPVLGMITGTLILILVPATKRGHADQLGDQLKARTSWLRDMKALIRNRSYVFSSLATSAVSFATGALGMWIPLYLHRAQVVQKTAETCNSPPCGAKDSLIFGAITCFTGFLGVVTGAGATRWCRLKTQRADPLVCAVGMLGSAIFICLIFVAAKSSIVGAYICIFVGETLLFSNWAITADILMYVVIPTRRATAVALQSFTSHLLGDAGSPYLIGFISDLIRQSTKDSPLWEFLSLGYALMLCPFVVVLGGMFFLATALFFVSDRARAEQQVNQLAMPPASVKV
# assay-text: S1PR3-coupled S1P export assay in CHO cells
observation-type: pIC50
The scale used: pIC50 is minus the common logarithm of the concentration in molar units.

Exercise: Any idea what pIC50 came out for CCCCCCCCCCc1ccc2nc(NC[C@H]3CCNC3)oc2c1 [33p] on SPNS2 (Homo sapiens, UniProt Q8IVW8)?
Key: 5.72
